Target: S. pneumoniae ComD1 receptor (Streptococcus pneumoniae serotype 2, UniProt A0A0H2ZM50)
Sequence (A0A0H2ZM50 1-441): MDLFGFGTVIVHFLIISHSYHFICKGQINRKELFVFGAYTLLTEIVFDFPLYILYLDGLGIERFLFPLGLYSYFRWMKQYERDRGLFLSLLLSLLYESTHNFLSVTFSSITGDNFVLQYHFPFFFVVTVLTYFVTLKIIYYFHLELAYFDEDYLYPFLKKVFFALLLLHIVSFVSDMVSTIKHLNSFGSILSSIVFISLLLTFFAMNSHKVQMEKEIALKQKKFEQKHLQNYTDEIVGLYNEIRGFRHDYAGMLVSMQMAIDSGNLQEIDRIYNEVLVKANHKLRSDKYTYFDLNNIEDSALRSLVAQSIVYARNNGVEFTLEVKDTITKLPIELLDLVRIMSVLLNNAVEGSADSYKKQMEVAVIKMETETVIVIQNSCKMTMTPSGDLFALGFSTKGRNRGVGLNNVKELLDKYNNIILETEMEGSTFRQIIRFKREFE
Assay: β-galactosidase reporter assay, agonism
Type: cell-based
pEC50: −log10 of the molar value. Where no end group is shown, it is not given here.
Use YES when the recorded pEC50 is no lower than 7; use NO when it is lower.

Dear colleague, could you confirm whether EMRQTHNIFFNLFKRR [S. mitis-CSP-2-I2MF12L] has pEC50 at or above 7? YES

Determine whether measured pEC50 meets or exceeds 7 for EIRLTHFIFFNLFKRR [S. mitis-CSP-2-Q4LN7FF12L] NO

Reported pEC50 at or above 7? EIRLTHFFFFNFFKRR [S. mitis-CSP-2-Q4LN7FI8F] NO

---

Target: S. pneumoniae ComD2 receptor (Streptococcus pneumoniae serotype 4, UniProt A0A0H2US84)
Sequence (A0A0H2US84 1-441): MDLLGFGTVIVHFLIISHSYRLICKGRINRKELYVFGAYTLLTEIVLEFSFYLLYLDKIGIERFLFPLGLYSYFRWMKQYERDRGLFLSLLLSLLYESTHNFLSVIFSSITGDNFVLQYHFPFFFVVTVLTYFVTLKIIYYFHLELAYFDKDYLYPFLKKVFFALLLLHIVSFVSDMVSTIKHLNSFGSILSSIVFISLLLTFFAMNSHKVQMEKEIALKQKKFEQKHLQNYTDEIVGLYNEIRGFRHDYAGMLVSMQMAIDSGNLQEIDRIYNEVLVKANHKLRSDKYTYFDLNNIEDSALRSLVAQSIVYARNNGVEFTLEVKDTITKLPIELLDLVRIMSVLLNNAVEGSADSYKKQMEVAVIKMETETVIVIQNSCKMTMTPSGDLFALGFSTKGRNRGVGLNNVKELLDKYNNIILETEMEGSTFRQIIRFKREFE
Experiment: β-galactosidase reporter assay, agonism
Type: cell-based
Where no end group is shown, it is not given here.
Assay metric: log10 EC50 (log10 of the value in nM)
// stored as log10 of EC50 expressed in nM

S. pneumoniae ComD2 receptor (Streptococcus pneumoniae serotype 4, UniProt A0A0H2US84) / log10 EC50 / EIRQTHNIFFNFFKRR [S. mitis-CSP-2] : value? 2.80

Any idea what log10 EC50 came out for EIRQTHFFFFNFFKRR [S. mitis-CSP-2-N7FI8F] on S. pneumoniae ComD2 receptor (Streptococcus pneumoniae serotype 4, UniProt A0A0H2US84)? 1.39

// lookup log10 EC50 | system=S. pneumoniae ComD2 receptor (Streptococcus pneumoniae serotype 4, UniProt A0A0H2US84) | key= EIRLTHNFFFNFFKRR [S. mitis-CSP-2-Q4LI8F] 2.57

log10 EC50 of EIRLTHFIFFNFFKRR [S. mitis-CSP-2-Q4LN7F] on S. pneumoniae ComD2 receptor (Streptococcus pneumoniae serotype 4, UniProt A0A0H2US84)? 2.51

Hi! What's the reported log10 EC50 for EIRQTHIIFFNLFKRR [S. mitis-CSP-2-N7IF12L] on S. pneumoniae ComD2 receptor (Streptococcus pneumoniae serotype 4, UniProt A0A0H2US84)? 2.51

Under S. pneumoniae ComD2 receptor (Streptococcus pneumoniae serotype 4, UniProt A0A0H2US84): log10 EC50 value of EIRLTHNIFFNLFKRR [S. mitis-CSP-2-Q4LF12L] ? 2.31

Give log10 EC50 (S. pneumoniae ComD2 receptor (Streptococcus pneumoniae serotype 4, UniProt A0A0H2US84)) of the following sequence: EMRQTHNIFFNFFKRR [S. mitis-CSP-2-I2M] 2.13

Notebook entry, S. pneumoniae ComD2 receptor (Streptococcus pneumoniae serotype 4, UniProt A0A0H2US84) assay: log10 EC50 of EIRQTHIFFFNFFKRR [S. mitis-CSP-2-N7II8F] = ? 1.36

# query: log10 EC50 | item EMRQTHFIFFNLFKRR [S. mitis-CSP-2-I2MN7FF12L] | system: S. pneumoniae ComD2 receptor (Streptococcus pneumoniae serotype 4, UniProt A0A0H2US84) 2.05

# returns recorded log10 EC50 (system: S. pneumoniae ComD2 receptor (Streptococcus pneumoniae serotype 4, UniProt A0A0H2US84)) for EMRLTHNIFFNFFKRR [S. mitis-CSP-2-I2MQ4L] 2.15

Param readout= log10 EC50; system= S. pneumoniae ComD2 receptor (Streptococcus pneumoniae serotype 4, UniProt A0A0H2US84); entry= EIRQTHNIFFFLFKRR [S. mitis-CSP-2-N11FF12L] ; returns value. 2.10
